Reported chemical recovery by SPE of plasma by item:
assay_method_text: chemical recovery by SPE of plasma after PDMS sampling; higher = better extraction
protocol_conditions: pooled human plasma; extraction method: HLB SPE of plasma after PES; equilibration time (d): 6
Kindly provide the numeric value in % only, without the unit symbol.

compound	result_number
CC(=O)[C@@]1(O)CC[C@H]2[C@@H]3C[C@H](C)C4=CC(=O)CC[C@]4(C)[C@H]3CC[C@@]21C [Medroxyprogesterone]	1.02
NC(=O)c1c(Cl)c(Cl)cc(C(=O)O)c1Cl	45.4
CCOC(=O)C1=C(C)NC(C)=C(C(=O)OC)C1c1cccc([N+](=O)[O-])c1 (stereo not given) [Nitrendipin]	2.81
c1ccc2c(c1)c1cccc3ccc4cccc2c4c31 [Benzo(e)pyrene]	1.06

Next, consider the following compound.
Prompt: Given the entry Fc1ccc([C@@H]2CCNC[C@H]2COc2ccc3c(c2)OCO3)cc1 [Paroxetine] , report its measured chemical recovery by SPE of plasma.
Response: 2.27

###

assay_method_text: chemical recovery from spiked human plasma; higher = better extraction
protocol_conditions: pooled human plasma; extraction method: SPE only (HLB 96-well), PES comparison experiment
measured_parameter: chemical recovery (%)
The reply should be a number in %, with the unit left off.

compound	chemical recovery (%)
O=[N+]([O-])c1ccc(O)cc1	64.5

Prompt: Tell me the measured chemical recovery of CO/C=C(/C(=O)OC)c1ccccc1Oc1cc(Oc2ccccc2C#N)ncn1 , please.
Response: 51.9

Prompt: Would you mind doing CC(C)c1c(C(=O)Nc2ccccc2)c(-c2ccccc2)c(-c2ccc(F)cc2)n1CC[C@@H](O)C[C@@H](O)CC(=O)O as well?
Response: 41.1

Prompt: And the next one, CCC(=C(c1ccc(O)cc1)c1ccc(OCCN(C)C)cc1)c1ccccc1 [4-Hydroxytamoxifen] ?
Response: 42.6

Prompt: How about Nc1c(Br)cc(Br)cc1CN[C@H]1CC[C@H](O)CC1 ?
Response: 29.4

###

assay_method_text: chemical recovery from spiked human plasma; higher = better extraction
protocol_conditions: pooled human plasma; extraction method: PES+SPE (3 d PDMS equilibration then HLB SPE)
Kindly return Fulfilled if reported chemical recovery is no lower than 50%; return Not fulfilled if it is lower.

molecule	classification
O=P1(NCCCl)OCCCN1CCCl (stereo not given) [Ifosfamide]	Not fulfilled

Prompt: Does chemical recovery meet or surpass 50% for COc1nc(NC(=O)NS(=O)(=O)c2ccccc2C(F)(F)F)nc(C(F)(F)F)n1 [Tritosulfuron] ?
Response: Fulfilled

Prompt: Continue with CC(Cc1ccc(C(C)(C)C(=O)O)cc1)CN1C[C@@H](C)O[C@@H](C)C1 (stereo not given in full) [Fenpropimorph-acid]
Response: Not fulfilled

Prompt: Thanks! And O=C(O)/C=C/c1c[nH]c2ccccc12 [Indole-3-acrylic-acid] ?
Response: Not fulfilled

###

assay_method_text: chemical recovery by SPE of plasma after PDMS sampling; higher = better extraction
protocol_conditions: pooled human plasma; extraction method: HLB SPE of plasma after PES; equilibration time (d): 3
measured_parameter: chemical recovery by SPE of plasma (%)
Give just the number in %; leave the unit off.

molecule	chemical recovery by SPE of plasma [%]
CC[C@H]1CCC[C@H](O[C@H]2CC[C@H](N(C)C)[C@@H](C)O2)[C@@H](C)C(=O)C2=C[C@@H]3[C@@H](C=C[C@@H]4C[C@@H](O[C@@H]5O[C@@H](C)[C@H](OC)[C@@H](OC)[C@H]5OC)C[C@@H]34)[C@@H]2CC(=O)O1 [Spinosyn A]	0.155
C#CC(C)(C)NC(=O)c1cc(Cl)cc(Cl)c1 [Propyzamide]	7.16
CC1CN(C2CCCCCCCCCCC2)CC(C)O1 (stereo unspecified)	0.11
CC[C@@]1([C@@H]2O[C@@H]([C@H]3O[C@@](O)(CO)[C@H](C)C[C@@H]3C)C[C@@H]2C)CC[C@H]([C@]2(C)CC[C@]3(C[C@H](O)[C@@H](C)[C@@H]([C@@H](C)[C@@H](OC)[C@H](C)C(=O)O)O3)O2)O1	2.26
CCC1=C(C)CN(C(=O)NCCc2ccc(S(=O)(=O)NC(=O)NC3CCC(C)CC3)cc2)C1=O (stereo unspecified) [Glimepiride]	45.2
CCCCCCCCc1cccc(Nc2ccccc2)c1CCCCCCCC	0.992

Prompt: Reported chemical recovery by SPE of plasma for O=P(O)(Oc1ccccc1)Oc1ccccc1 [Diphenylphosphate] : what is it?
Response: 56

Prompt: What do you get for CC(C)C(=O)Nc1ccc([N+](=O)[O-])c(C(F)(F)F)c1 [Flutamide] ?
Response: 22.2

Prompt: And O=c1cc(O)c2ccccc2o1 [4-Hydroxycoumarin] ?
Response: 64.3

Prompt: Cool, now CCCCc1c(C)nc(NCC)nc1OS(=O)(=O)N(C)C [Bupirimate]
Response: 0.147

Prompt: Lookup c1ccc(Nc2cccc3ccccc23)cc1
Response: 2.7

Prompt: Now try O=[N+]([O-])c1cc[n+]([O-])c2ccccc12 [4-Nitroquinoline-1-oxide] .
Response: 18.4

Prompt: # repeat for CCOC(=O)C1=C(C)NC(C)=C(C(=O)OC)C1c1cccc([N+](=O)[O-])c1 (stereo unspecified)
Response: 5.18

Prompt: Same question for COc1c(C)c2c(c(O)c1C/C=C(\C)CCC(=O)O)C(=O)OC2 please.
Response: 53

Prompt: How about CCCSc1ccc2[nH]c(NC(=O)OC)nc2c1 ?
Response: 3.53

Prompt: Thanks! And COc1cc(O)c(C(=O)c2ccccc2)cc1S(=O)(=O)O ?
Response: 48.7
